Recorded T/C, one value per entry.
Test system: L1210 leukemia ip in BDF1 mice, survival T/C
Experiment: NCI In Vivo Anticancer Drug Screen. Data for tumor model L1210 Leukemia (intraperitoneal) in B6D2F1 (BDF1) mice
Details: endpoint: mean survival time; dose: 200.0 mg/kg/injection; schedule: Q04DX003 (ip); vehicle: Klucel (hydroxypropylcellulose) (HPC); higher = longer survival
Inconclusive results and toxic doses are left out. Peptide text beside a SMILES is read from it. * marks the point of attachment. Cbz = O=C(OCc1ccccc1)*; Bn = c1ccc(C*)cc1
parameter: T/C

>>> result("C=CCNCC(O)c1ccccc1 (stereo not given)")
"101 % of control"
>>> result("O=C(c1ccccc1)N1C(c2ccccc2)C1(c1ccccc1)C1(c2ccccc2)SCCCS1 (stereo not given)")
"100 % of control"
>>> result("Cc1cc(Cl)ccc1NC(=O)Nc1ccc(Cl)c(Cl)c1")
"90 % of control"
>>> result("Cc1ccc2c(ccc(/C=C/c3ccc(O)c4ncccc34)[n+]2C)c1")
"98 % of control"
>>> result("COC(=O)C(NC(=O)C(CSCc1ccccc1)NC(=O)OCc1ccccc1)C(C)C (stereo not given) (Cbz-Cys(Bn)-Val-OMe; configuration not given here)")
"97 % of control"

====

Test system: L1210 leukemia ip in BDF1 mice, survival T/C
Assay: NCI In Vivo Anticancer Drug Screen. Data for tumor model L1210 Leukemia (intraperitoneal) in B6D2F1 (BDF1) mice
Settings: endpoint: mean survival time; dose: 200.0 mg/kg/injection; schedule: Q01DX009 (ip); vehicle: saline with Tween-80; higher = longer survival
Inconclusive results and toxic doses are left out.
Recorded T/C, one value per entry.
parameter: T/C

>>> result("Cc1cc(Cl)ccc1NC(=O)c1ccc(Cl)c(Cl)c1")
"93 % of control"
>>> result("[N-]=[N+]=c1c(=O)c2ccccc2c1=O")
"97 % of control"
>>> result("CCC(CCC(C)C1CCC2C3CC=C4CC(OC(=O)CCC(=O)O)CCC4(C)C3CCC12C)C(C)C (configuration not stated)")
"96 % of control"
>>> result("OC(O)C(F)(F)F")
"121 % of control"
>>> result("COc1ccc(NC(=O)CC(C)(C)C(=O)O)cc1")
"92 % of control"
>>> result("CCOC(OCC)c1ccccc1 (tested in a mixture with another compound)")
"100 % of control"
>>> result("CCOC(=O)C(=O)Nc1onc(C)c1NC(=O)C(=O)OCC")
"89 % of control"
>>> result("O=C(Nc1cc([N+](=O)[O-])ccc1Cl)SCc1ccccc1")
"98 % of control"
>>> result("CC(C)(C#N)NC(=O)NC(C)(C)C#N")
"97 % of control"
>>> result("CCO/C=C1\\SC(=S)N(c2ccccc2OC)C1=O")
"104 % of control"
>>> result("COc1ccc2c(c1)c1c(C)c3cnccc3c(C)c1n2CCCN1C(=O)c2ccccc2C1=O")
"101 % of control"
>>> result("CCC(N)c1ccc2c3c(cccc13)CC2 (configuration not stated)")
"90 % of control"
>>> result("O=C(COc1cccc(Cl)c1)NCc1ccc([N+](=O)[O-])cc1")
"100 % of control"
>>> result("CC12CCC3c4ccc(OCC5CO5)cc4CCC3C1CCC2=O (configuration not stated)")
"94 % of control"
>>> result("Fc1ccc(C(c2ccc(F)cc2)C(Cl)Cl)cc1")
"97 % of control"
>>> result("NC(Cc1ccc(OCc2ccccc2)cc1)C(=O)O (configuration not stated)")
"90 % of control"
>>> result("Cc1ccc(CCl)cc1")
"102 % of control"
